# credit: the supplement of paper PMC11061612

Tested on: HC-1 (Other Blood Carcinomas)
assay.name: combination Emax (second highest fraction inhibited in the dose matrix, 72 h); higher = more inhibition; extreme values may be limits of the assay
measure.name: combination Emax
Output: the number by itself.

>  <compound>
Cc1cc2ncnn2cc1Nc1ncc2c(n1)n(C1CCOCC1)c(=O)n2C [AZD7648] + CCN(CCO)CCCOc1ccc2c(Nc3cc(CC(=O)Nc4cccc(F)c4)[nH]n3)ncnc2c1 [AZD2811] (first compound max 10 µM, 7x7, partner max 1 µM)

>  <combination Emax>
0.737

$$$$
>  <compound>
Cc1c2c(nn1C)CSCc1cc(n(C)n1)CSc1cc(c3ccccc3c1)OCCCc1c(C(=O)O)n(C)c3c-2c(Cl)ccc13 [AZD5991] + CN(C)CCCOc1ccc(-c2ccc3ncc4c(c3c2)n(C2CCOCC2)c(=O)n4C)cn1 [AZD0156] (first compound max 1 µM, 7x7, partner max 1 µM)

>  <combination Emax>
0.37

$$$$

Next compound, please.
Documented combination Emax of CC1(C)CCC(CN2CCN(c3ccc(C(=O)NS(=O)(=O)c4ccc(NCC5CCOCC5)c([N+](=O)[O-])c4)c(Oc4cnc5[nH]ccc5c4)c3)CC2)=C(c2ccc(Cl)cc2)C1 [Venetoclax] + COc1cc(Nc2ncc3c(n2)-c2ccc(Cl)cc2C(c2c(F)cccc2OC)=NC3)ccc1C(=O)O [Alisertib] (first compound max 1 µM, 7x7, partner max 10 µM) : 0.861

----------
System: KP-2 (Pancreatic Carcinoma)
assay.name: Bliss excess, mean over the matrix (fraction); higher = more synergy
Measured Bliss excess of individual entries

>  <compound>
NC1(C(=O)N[C@@H](CCO)c2ccc(Cl)cc2)CCN(c2ncnc3[nH]ccc23)CC1 [Capivasertib] + COc1nnc2ccc(N3CCC(c4ccc(OCCN5CCN(C)C(=O)[C@H]5C)cc4)CC3)nn12 [AZD5153] (first compound max 10 µM, 7x7, partner max 1 µM)

>  <result>
0.0358

$$$$

Bench note, KP-2 (Pancreatic Carcinoma): CN(CCO)CC[C@H](CSc1ccccc1)Nc1ccc(S(=O)(=O)NC(=O)c2ccc(N3CCC([C@@H](O)c4ccccc4-c4ccc(Cl)cc4)CC3)cc2)cc1S(=O)(=O)C(F)(F)F [AZD4320] + C[C@@H]1COCCN1C2=NC(=NC(=C2)C3(CC3)[S@](=N)(=O)C)C4=C5C=CNC5=NC=C4 [AZD6738] (first compound max 1 µM, 7x7, partner max 10 µM) , Bliss excess reads -0.104

----------
Tested on: NH-12 (Neuroblastoma)
assay.name: Bliss excess, mean over the matrix (fraction); higher = more synergy
Measured Bliss excess of individual entries

Documented Bliss excess of NC1(C(=O)N[C@@H](CCO)c2ccc(Cl)cc2)CCN(c2ncnc3[nH]ccc23)CC1 [Capivasertib] + CCN(CCO)CCCOc1ccc2c(Nc3cc(CC(=O)Nc4cccc(F)c4)[nH]n3)ncnc2c1 [AZD2811] (first compound max 10 µM, 7x7, partner max 1 µM) : -0.0439

Documented Bliss excess of CN(CCO)CC[C@H](CSc1ccccc1)Nc1ccc(S(=O)(=O)NC(=O)c2ccc(N3CCC([C@@H](O)c4ccccc4-c4ccc(Cl)cc4)CC3)cc2)cc1S(=O)(=O)C(F)(F)F [AZD4320] + C[C@@H]1COCCN1C2=NC(=NC(=C2)C3(CC3)[S@](=N)(=O)C)C4=C5C=CNC5=NC=C4 [AZD6738] (first compound max 1 µM, 7x7, partner max 10 µM) : -0.0795
